Cited source: patent US11279687B2

target: NAMPT (Homo sapiens (Human), UniProt P43490); assay: NAMPT biochemical inhibition assay (NMN quantified by mass spectrometry); settings: NAMPT biochemical inhibition; read-out: Biochem IC50
Sequence (P43490 whole entry): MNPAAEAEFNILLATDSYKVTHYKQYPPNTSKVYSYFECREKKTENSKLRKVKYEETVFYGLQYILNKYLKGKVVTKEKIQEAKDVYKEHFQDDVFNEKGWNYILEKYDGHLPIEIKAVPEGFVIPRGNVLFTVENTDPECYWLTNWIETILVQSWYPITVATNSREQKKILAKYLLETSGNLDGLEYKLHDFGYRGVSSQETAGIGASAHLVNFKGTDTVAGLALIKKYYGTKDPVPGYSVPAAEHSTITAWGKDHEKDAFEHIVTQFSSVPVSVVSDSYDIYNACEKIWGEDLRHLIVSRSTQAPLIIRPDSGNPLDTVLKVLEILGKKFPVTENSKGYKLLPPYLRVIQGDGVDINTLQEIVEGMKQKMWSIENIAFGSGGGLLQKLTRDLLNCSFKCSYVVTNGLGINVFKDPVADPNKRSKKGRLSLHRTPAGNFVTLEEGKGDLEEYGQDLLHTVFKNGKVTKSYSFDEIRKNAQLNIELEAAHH
Friendly reminder: IC50 below 6 nM is Yes, at or above is No.

INSERT INTO results (molecule, label_class) VALUES
  ('O=C(NCc1cccnc1)Nc1ccc(S(=O)(=O)NCc2ccccc2Cl)cc1', 'Yes'),
  ('NC(=O)c1ccc(CNC(=O)Nc2ccc(S(=O)(=O)N3CCCCC3)cc2)cn1', 'No'),
  ('O=C(NCc1cccnc1)Nc1ccc(S(=O)(=O)c2cc(OC(F)(F)F)ccc2Cl)cc1', 'No'),
  ('O=C(NCc1cccnc1)Nc1ccc(S(=O)(=O)N2CCNCC2)cc1', 'No'),
  ('O=C(NCc1ccc(-n2cccn2)nc1)Nc1ccc(S(=O)(=O)c2ccccc2)cc1', 'No'),
  ('O=C(NCc1cccnc1)Nc1ccc(S(=O)(=O)c2ccc3ncccc3c2)cc1', 'Yes'),
  ('O=C(NCc1cccnc1)Nc1ccc(S(=O)(=O)c2ccc(-n3cccn3)cc2)cc1', 'Yes'),
  ('O=C(NCc1cccnc1)Nc1ccc(S(=O)(=O)c2ccccc2Cl)cc1', 'Yes'),
  ('O=C(NCc1cccnc1)Nc1ccc(S(=O)(=O)Nc2ccc(Cl)c3ccccc23)cc1', 'Yes'),
  ('O=C(NCc1cccnc1)Nc1ccc(S(=O)(=O)N2CCC3(CCOC3)CC2)cc1', 'Yes'),
  ('Cc1cccc(S(=O)(=O)c2ccc(NC(=O)NCc3cccnc3)cc2)c1C', 'Yes'),
  ('O=C(NCc1cccnc1)Nc1ccc(S(=O)(=O)c2ccc(C(=O)N3CCCC3)cc2)cc1', 'Yes'),
  ('Cc1ccc(Cl)cc1N1CCN(S(=O)(=O)c2ccc(NC(=O)NCc3cccnc3)cc2)CC1', 'Yes'),
  ('O=C(NCc1cccnc1)Nc1ccc(S(=O)(=O)c2cccc(C(=O)NC3CCCC3)c2)cc1', 'No'),
  ('Cn1c(S(=O)(=O)c2ccc(NC(=O)NCc3cccnc3)cc2)cc2ccccc21', 'Yes'),
  ('O=C(NCc1cccnc1)Nc1ccc(S(=O)(=O)c2ccc(Cl)cc2Cl)cc1', 'Yes'),
  ('C[C@H](O)c1cccc(NS(=O)(=O)c2ccc(NC(=O)NCc3cccnc3)cc2)c1', 'No'),
  ('O=C(NCc1cccnc1)Nc1ccc(S(=O)(=O)N2CC[C@@]3(C2)OC(=O)c2ccccc23)cc1', 'Yes'),
  ('O=C(NCc1ccc2nccn2c1)c1ccc(S(=O)(=O)c2cccc(OC(F)(F)F)c2)cc1', 'No');
